Tested on: G-clamp-N3 (biotin conjugate)
protocol.summary: pull-down binding Z-score (relative to library population); higher = stronger binding
condition.summary: RNA library: Library-1 (pre-miRNA loops + repeats)
test.readout: pull-down binding Z-score

[[record]]
sequence = "UUACUGCAGGGAUCUUAGCAGUAC [hsa-mir-583]"
test_readout = "pull-down binding Z-score"
reported_result = -0.752

[[record]]
sequence = "UAUCUAUAUAUAUGUGUA [hsa-mir-3171]"
test_readout = "pull-down binding Z-score"
reported_result = -0.471

[[record]]
sequence = "CAGUGAACUAUCAUUGUGCCACUG [hsa-mir-1254-1]"
test_readout = "pull-down binding Z-score"
reported_result = 0.978

[[record]]
sequence = "CGAGACACAGAAACAGACACCUGCCCUCGA [hsa-mir-151b]"
test_readout = "pull-down binding Z-score"
reported_result = -2.29

